Property Label: melting point

Example cases with answers are listed next.
>>> result("CCC1(CC(=O)O)OCC(Cc2ccccc2)c2c1[nH]c1ccccc21 (single isomer, unassigned; (-))")
"142 to 143 °C"
>>> result("CC(C)(Oc1ccc(NC(=O)Nc2ccc(Cl)c(Cl)c2)cc1)C(=O)O")
"183 to 184 °C"
>>> result("Cc1ccccc1C(=O)CN1C(=O)C(NC(=O)Nc2cccc(C(=O)NS(C)(=O)=O)c2)CN(c2ccccc2)c2ccccc21 (configuration not stated)")
"210 to 220 °C"
>>> result("Nc1ccc2c(c1)C(=O)CC2")
"168 to 171 °C"
>>> result("CC(=O)N1CC(C)(C)c2c1cc(C)c(O)c2C")
"173 to 174 °C"

### Prompt Reported melting point for CCCC(C)CC(C)(C)NC(=O)CN1C(=O)c2ccccc2C1=O (configuration not stated) : what is it?
### Response 132 °C
